- System: T1, human CD19 expressed on the cell surface (human, UniProt P15391 20-556)
- T1 construct: CHO cells were transfected with the full-length cDNA encoding the transmembrane form of CD19; Raji, Daudi and ARH-77 cells carry endogenous CD19; also called CD19 on Raji B tumor cells; CD19 on Daudi B tumor cells
- T1 sequence: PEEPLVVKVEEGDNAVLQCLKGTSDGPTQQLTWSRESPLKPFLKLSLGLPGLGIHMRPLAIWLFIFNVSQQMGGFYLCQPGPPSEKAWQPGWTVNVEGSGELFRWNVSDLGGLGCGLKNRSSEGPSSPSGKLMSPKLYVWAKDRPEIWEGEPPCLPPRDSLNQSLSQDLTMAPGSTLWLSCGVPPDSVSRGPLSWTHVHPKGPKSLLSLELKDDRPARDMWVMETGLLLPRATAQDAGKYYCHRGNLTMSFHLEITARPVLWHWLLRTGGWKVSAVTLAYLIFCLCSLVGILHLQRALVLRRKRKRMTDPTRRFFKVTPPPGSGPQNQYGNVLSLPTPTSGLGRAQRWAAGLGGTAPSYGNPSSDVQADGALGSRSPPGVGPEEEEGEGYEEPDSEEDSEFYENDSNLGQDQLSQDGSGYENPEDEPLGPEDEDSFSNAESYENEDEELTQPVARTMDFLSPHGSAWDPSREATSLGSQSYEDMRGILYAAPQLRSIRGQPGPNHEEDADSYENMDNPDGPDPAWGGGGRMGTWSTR
- Assay summary: FACS competition on Raji cells: unlabeled antibody titrated against biotinylated 21D4 at 0.3 ug/mL, Geo Mean (PE); unit from the concentration axis
Provide the recorded EC50 for the entries that follow.
Write it as a number; the unit nM goes unstated.

In: Param item = human monoclonal antibody 21D4 (antibody, V domains shown, Fully human antibody from a KM mouse hybridoma, kappa light chain; also called HuMAb 21D4; parental anti-CD19 antibody 21D4) VH: EVQLVQSGAEVKKPGESLKISCKGSGYSFSSSWIGWVRQMPGKGLEWMGIIYPDDSDTRYSPSFQGQVTISADKSIRTAYLQWSSLKASDTAMYYCARHVTMIWGVIIDFWGQGTLVTVSS VL: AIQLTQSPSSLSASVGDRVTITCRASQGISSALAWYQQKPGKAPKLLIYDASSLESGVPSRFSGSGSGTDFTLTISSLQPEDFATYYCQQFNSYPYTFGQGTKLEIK ; retrieve measured EC50.
Out: 0.655

In: What do you have for human monoclonal antibody 5G7 (antibody, V domains shown, N-linked carbohydrate in the variable (Fab) region at the N-I-S motif starting at position 19) VH: EVQLVQSGAEVKKPGESLNISCKGSGYSFTSYWIGWVRQMPGKGLEWMGIIYPGDSDTRYSPSFQGQVTISADKSINTAYLQWSSLKASDTAMYYCARGVSMIWGVIMDVWGQGTTVTVSS VL: AIQLTQSPSSLSASVGDRVTITCRASQGISSALAWYQQKPGKAPKLLIYDASSLESGVPSRFSGSGSGTDFTLTISSLQPEDFATYYCQQFNSYPWTFGQGTKVEIK ?
Out: 2.45

In: What do you have for human monoclonal antibody 13F1 (antibody, V domains shown) VH: EVQLVQSGAEVKKPGESLQISCKGSGYTFTNYWIAWVRQMPGKGLEWMGIIYPGDSDTRYSPSFQGQVTISADKSISTAYLQWSGLKASDTAMYYCARQGYSSGWRSYYGMGVWGQGTTVTVSS VL: AIQLTQSPSSLSASVGDRVTITCRASQGISSALAWYQQKPGKAPKLLIYDASSLESGVPSRFSGSGSGTDFTLTISSLQPEDFATYYCQQFNSYPHTFGQGTKLEIK ?
Out: 1.99

In: What do you have for 5G7-N19K (antibody, V domains shown, also called 5G7 with N-I-S changed to K-I-S) VH: EVQLVQSGAEVKKPGESLKISCKGSGYSFTSYWIGWVRQMPGKGLEWMGIIYPGDSDTRYSPSFQGQVTISADKSINTAYLQWSSLKASDTAMYYCARGVSMIWGVIMDVWGQGTTVTVSS VL: AIQLTQSPSSLSASVGDRVTITCRASQGISSALAWYQQKPGKAPKLLIYDASSLESGVPSRFSGSGSGTDFTLTISSLQPEDFATYYCQQFNSYPWTFGQGTKVEIK ?
Out: 2.1

In: What do you have for human monoclonal antibody 21D4a (antibody, V domains shown, Same heavy chain as 21D4, paired with the second light chain made by the 21D4 hybridoma) VH: EVQLVQSGAEVKKPGESLKISCKGSGYSFSSSWIGWVRQMPGKGLEWMGIIYPDDSDTRYSPSFQGQVTISADKSIRTAYLQWSSLKASDTAMYYCARHVTMIWGVIIDFWGQGTLVTVSS VL: AIQLTQSPSSLSASVGDRVTITCRASQGISSALAWYQQKPGKAPKLLIYDASSLESGVPSRFSGSGSGTDFTLTISSLQPEDFATYYCQQFNSYPFTFGPGTKVDIK ?
Out: 0.694

In: What do you have for 5G7-N19Q (antibody, V domains shown, Glycosylation-site variant of 5G7; also called 5G7 with N-I-S changed to Q-I-S) VH: EVQLVQSGAEVKKPGESLQISCKGSGYSFTSYWIGWVRQMPGKGLEWMGIIYPGDSDTRYSPSFQGQVTISADKSINTAYLQWSSLKASDTAMYYCARGVSMIWGVIMDVWGQGTTVTVSS VL: AIQLTQSPSSLSASVGDRVTITCRASQGISSALAWYQQKPGKAPKLLIYDASSLESGVPSRFSGSGSGTDFTLTISSLQPEDFATYYCQQFNSYPWTFGQGTKVEIK ?
Out: 2.16

Where do the numbers come from? From patent US20100104509A1.
